Reported Activity values for a set of compounds
target: Estrogen receptor beta (Homo sapiens); experiment: Displacement of fluorescein-labeled estradiol from human recombinant ERbeta at 5 uM by fluorescence polarization assay
Sequence (Q92731 whole entry): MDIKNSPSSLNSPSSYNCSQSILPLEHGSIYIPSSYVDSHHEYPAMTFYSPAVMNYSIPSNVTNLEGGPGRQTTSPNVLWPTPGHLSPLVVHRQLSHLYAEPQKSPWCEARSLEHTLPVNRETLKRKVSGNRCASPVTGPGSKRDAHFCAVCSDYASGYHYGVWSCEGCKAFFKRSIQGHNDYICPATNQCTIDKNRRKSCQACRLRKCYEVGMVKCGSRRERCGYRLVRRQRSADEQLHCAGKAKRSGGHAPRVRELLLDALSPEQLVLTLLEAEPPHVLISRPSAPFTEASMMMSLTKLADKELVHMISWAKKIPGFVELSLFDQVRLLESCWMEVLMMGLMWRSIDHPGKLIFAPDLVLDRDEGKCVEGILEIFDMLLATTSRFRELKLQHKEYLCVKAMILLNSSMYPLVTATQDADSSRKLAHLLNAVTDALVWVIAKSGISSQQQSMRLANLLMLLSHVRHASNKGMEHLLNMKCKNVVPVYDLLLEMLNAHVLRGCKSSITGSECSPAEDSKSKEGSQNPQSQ
Reported Metric: Activity (%)

Structure Smiles: CCC/C=C(\CCC)[C@@H](NP(=O)(c1ccccc1)c1ccccc1)c1ccccc1
Reported Metric: Activity
Measured Value: 14

Structure Smiles: CCC[C@@H]1C[C@@]1(CCC)[C@@H](NS(=O)(=O)c1cccc2cccnc12)c1ccc(-c2ccccc2)cc1
Reported Metric: Activity
Measured Value: 29

Structure Smiles: CCCC[C@@H]1C[C@H]1[C@@H](NC(=O)Cc1ccccc1)c1ccc(-c2ccccc2)cc1
Reported Metric: Activity
Measured Value: 14

Structure Smiles: CCCC[C@@H]1C[C@H]1[C@@H](NC(=O)C(C)(C)C)c1ccc(C(F)(F)F)cc1
Reported Metric: Activity
Measured Value: 7

Structure Smiles: CCC/C=C(\CCC)[C@@H](NC(=O)C(C)(C)C)c1ccc(C(=O)OC)cc1
Reported Metric: Activity
Measured Value: 10

Structure Smiles: CCC/C=C(\CCC)[C@@H](NS(=O)(=O)c1cccc2cccnc12)c1ccc(-c2ccccc2)cc1
Reported Metric: Activity
Measured Value: 13

Structure Smiles: CCC/C=C(\CCC)[C@@H](NS(=O)(=O)c1ccc(C(F)(F)F)cc1)c1ccc(C(=O)OC)cc1
Reported Metric: Activity
Measured Value: 43

Structure Smiles: CCC[C@@H]1C[C@@]1(CCC)[C@@H](NC(=O)c1ccco1)c1ccc(C(Cl)(Cl)Cl)cc1
Reported Metric: Activity
Measured Value: 25

Structure Smiles: CCC/C=C(\CCC)[C@@H](NS(=O)(=O)c1cccs1)c1ccc(C(=O)OC)cc1
Reported Metric: Activity
Measured Value: 32
